Each recorded value in this set is attributed to patent US20240383875A1.

Reported pIC50 values, SIK1 (Homo sapiens, UniProt P57059).
pIC50: −log10 of the molar value.

COMPOUND | pIC50
COc1cc(C)n(-c2nc(-n3cnc4cc(Nc5ccc(C)nn5)ccc43)ccc2C(C)O)n1 (stereo not drawn) | 5.84
CCC(O)c1ccc(-n2cnc3cc(OC)c(OC)cc32)nc1-c1cccc(Cl)c1 (stereo not drawn) | 6.45
COc1cc2ncn(-c3ccc(C(O)C4CC4)c(-c4ccc(F)cc4OC)n3)c2cc1OC (stereo not drawn) | 5.44

---

- SYSTEM TESTED: SIK1 (Homo sapiens)
- Sequence (P57059 whole entry): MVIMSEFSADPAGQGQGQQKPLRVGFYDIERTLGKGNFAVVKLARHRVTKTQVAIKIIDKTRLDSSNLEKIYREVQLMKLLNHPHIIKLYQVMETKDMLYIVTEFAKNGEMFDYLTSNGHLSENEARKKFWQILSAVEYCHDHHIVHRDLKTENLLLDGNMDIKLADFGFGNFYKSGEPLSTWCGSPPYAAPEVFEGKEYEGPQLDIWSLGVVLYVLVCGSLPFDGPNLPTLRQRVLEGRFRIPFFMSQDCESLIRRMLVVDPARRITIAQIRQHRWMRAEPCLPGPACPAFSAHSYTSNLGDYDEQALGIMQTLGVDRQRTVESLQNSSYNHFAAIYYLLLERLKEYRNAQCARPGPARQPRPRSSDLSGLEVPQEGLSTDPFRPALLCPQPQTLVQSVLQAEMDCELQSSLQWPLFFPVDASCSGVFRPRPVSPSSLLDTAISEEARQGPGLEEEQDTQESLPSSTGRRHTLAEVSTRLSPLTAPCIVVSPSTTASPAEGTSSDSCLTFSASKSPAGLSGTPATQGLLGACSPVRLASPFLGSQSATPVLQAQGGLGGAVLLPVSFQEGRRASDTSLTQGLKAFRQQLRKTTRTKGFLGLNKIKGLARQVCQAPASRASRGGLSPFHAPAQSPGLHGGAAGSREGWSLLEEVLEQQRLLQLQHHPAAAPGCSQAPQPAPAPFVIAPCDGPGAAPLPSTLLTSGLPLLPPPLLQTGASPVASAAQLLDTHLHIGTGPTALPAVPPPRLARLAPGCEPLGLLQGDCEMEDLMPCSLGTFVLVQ
pIC50: −log10 of the molar value.

COMPOUND | SYSTEM TESTED | QUALIFIER | pIC50
Cc1ccc(Nc2ccc3c(c2)ncn3-c2ccc(C(O)C(F)(F)F)c(-n3nc(C#N)cc3C)n2)nn1 (centres unmarked) [Example 148] | SIK1 (Homo sapiens) | = | 6.18
Cc1ccc(Nc2ccc3c(c2)ncn3-c2ccc(C(C)O)c(-c3cn(C(F)F)nc3C)n2)nn1 (centres unmarked) [Example 149] | SIK1 (Homo sapiens) | = | 5.89
Cc1cc(C#N)nn1-c1nc(-n2cnc3cc(N4CC[C@H](O)C4)ccc32)ccc1C(C)O (some centres unmarked) [Example 78, formic acid] | SIK1 (Homo sapiens) | = | 7.48
Cc1ccc(Nc2ccc3c(c2)ncn3-c2ccc(C(C)O)c(-c3cn(CC(F)CF)nc3C)n2)nn1 (centres unmarked) [Example 399] | SIK1 (Homo sapiens) | = | 7.41
Cc1ccc(Nc2ccc3c(c2)ncn3-c2ccc(C(C)O)c(-c3cncnc3NC3CC3)n2)nn1 (centres unmarked) [Example 163] | SIK1 (Homo sapiens) | < | 4.52

---

- SYSTEM TESTED: SIK2 (Homo sapiens)
- Sequence (Q9H0K1 whole entry): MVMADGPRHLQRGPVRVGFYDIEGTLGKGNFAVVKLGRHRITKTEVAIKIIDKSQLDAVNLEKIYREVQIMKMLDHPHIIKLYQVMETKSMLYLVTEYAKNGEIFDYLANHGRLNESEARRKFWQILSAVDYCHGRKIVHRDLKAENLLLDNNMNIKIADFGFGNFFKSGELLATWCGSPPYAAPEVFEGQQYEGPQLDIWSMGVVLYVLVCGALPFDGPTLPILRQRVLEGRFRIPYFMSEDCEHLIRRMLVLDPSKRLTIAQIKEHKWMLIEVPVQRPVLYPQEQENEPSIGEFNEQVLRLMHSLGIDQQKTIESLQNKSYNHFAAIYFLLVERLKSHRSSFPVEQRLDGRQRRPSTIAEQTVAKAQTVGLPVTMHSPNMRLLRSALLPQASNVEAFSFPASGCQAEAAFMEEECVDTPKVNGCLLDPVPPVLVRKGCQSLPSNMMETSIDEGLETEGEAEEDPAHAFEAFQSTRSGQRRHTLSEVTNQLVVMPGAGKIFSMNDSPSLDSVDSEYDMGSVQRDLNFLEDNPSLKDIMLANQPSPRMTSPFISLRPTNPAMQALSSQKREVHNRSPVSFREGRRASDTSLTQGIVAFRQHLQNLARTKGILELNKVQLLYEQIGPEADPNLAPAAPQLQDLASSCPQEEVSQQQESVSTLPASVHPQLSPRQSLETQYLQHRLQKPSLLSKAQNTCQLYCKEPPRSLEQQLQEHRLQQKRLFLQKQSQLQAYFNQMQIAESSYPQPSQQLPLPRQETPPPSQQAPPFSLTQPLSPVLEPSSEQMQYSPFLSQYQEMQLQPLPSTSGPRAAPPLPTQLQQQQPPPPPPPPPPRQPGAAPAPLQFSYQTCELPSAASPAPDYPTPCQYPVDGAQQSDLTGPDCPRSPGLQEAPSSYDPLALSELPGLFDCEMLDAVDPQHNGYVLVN
Reported IC50 values for the following compounds.
MEASURED ENDPOINT: IC50 (nM)

COMPOUND | QUANTITATIVE RESULT
Cc1cc(C#N)nn1-c1nc(-n2cnc3cc(NC(=O)C4CC4)ccc32)ccc1C(C)O (stereo not drawn) [Example 327] | 7.2
CCc1cc(C(F)F)nn1-c1nc(-n2cnc3cc(Nc4ccc(C)nn4)ccc32)ccc1C(C)O (stereo not drawn) [Example 370] | 7.1
Cc1ccc(Nc2ccc3c(c2)ncn3-c2ccc(C(C)O)c(N3CC[C@H]4NCC[C@@H]43)n2)nn1 (mixture of isomers) [Example 127] | 13.7
Cc1ccc(Nc2cc3c(cc2F)ncn3-c2ccc(C(C)O)c(-n3nc(C#N)cc3C)n2)nn1 (stereo not drawn) [Example 94] | 16.6
Cc1ccc(Nc2ccc3c(c2)ncn3-c2ccc(C(C)O)c(-c3c(C#N)cnn3C)n2)nn1 (stereo not drawn) [Example 76] | 327
Cc1cc(C#N)nn1-c1nc(-n2cnc3cc(Nc4cccnn4)ccc32)ccc1C(C)O (stereo not drawn) [Example 89] | 1.2
Cc1ccc(Nc2ccc3c(c2)ncn3-c2ccc(C(C)O)c(-c3cn(CC(F)CF)nc3C)n2)nn1 (stereo not drawn) [Example 399] | 0.6
Cc1cc(-c2nc(-n3cnc4cc(Nc5ccc(C)nn5)ccc43)ccc2C(C)O)cnn1 (stereo not drawn) [Example 135] | 589
Cc1ccc(Nc2ccc3c(c2)ncn3-c2ccc(C(C)O)c(N3CC4CC4(C#N)C3)n2)nn1 (stereo not drawn) [Example 321] | 19.2
